# Test system: Saccharomyces cerevisiae;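 note: PSI is a weighted mean of sequencing reads over stability bins, variants kept only with over 10 reads, mCherry proximal and sfGFP distal, peptide attached via GGGS linker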
# assay text: protein stability index of tFT-peptide fusion (C-terminal peptide) (PSI (0-1 scale)); higher = more stable (slower turnover)
# reported conditions: genetic background: wild type; temperature: 30 C
sequences and their reported protein stability index
Lab note: record the figure alone, no unit after it.

Illustrative cases are given below, each with its answer.
• LLSGHFRLLLAF = 0.136
• PHTLPPLPVSPT = 0.67

query: What does the record list as protein stability index for `TRDLWWNVRVRA` ?
result: 0.543

query: What does the record list as protein stability index for `PPPPPPPPRLTP` ?
result: 0.754

query: What does the record list as protein stability index for `SFPRPTSALSLN` ?
result: 0.604

query: What does the record list as protein stability index for `KENIRPSESYKC` ?
result: 0.668

query: What does the record list as protein stability index for `PAPPAALPPPHP` ?
result: 0.637
